Target: T1, human ROR2 expressed on the cell surface (human, UniProt Q01974 34-943)
T1 construct: Endogenous ROR2 of human tumour cell lines; also called cell surface ROR2; ROR2 on tumour cell lines
T1 sequence (Q01974 34-943 limits assumed): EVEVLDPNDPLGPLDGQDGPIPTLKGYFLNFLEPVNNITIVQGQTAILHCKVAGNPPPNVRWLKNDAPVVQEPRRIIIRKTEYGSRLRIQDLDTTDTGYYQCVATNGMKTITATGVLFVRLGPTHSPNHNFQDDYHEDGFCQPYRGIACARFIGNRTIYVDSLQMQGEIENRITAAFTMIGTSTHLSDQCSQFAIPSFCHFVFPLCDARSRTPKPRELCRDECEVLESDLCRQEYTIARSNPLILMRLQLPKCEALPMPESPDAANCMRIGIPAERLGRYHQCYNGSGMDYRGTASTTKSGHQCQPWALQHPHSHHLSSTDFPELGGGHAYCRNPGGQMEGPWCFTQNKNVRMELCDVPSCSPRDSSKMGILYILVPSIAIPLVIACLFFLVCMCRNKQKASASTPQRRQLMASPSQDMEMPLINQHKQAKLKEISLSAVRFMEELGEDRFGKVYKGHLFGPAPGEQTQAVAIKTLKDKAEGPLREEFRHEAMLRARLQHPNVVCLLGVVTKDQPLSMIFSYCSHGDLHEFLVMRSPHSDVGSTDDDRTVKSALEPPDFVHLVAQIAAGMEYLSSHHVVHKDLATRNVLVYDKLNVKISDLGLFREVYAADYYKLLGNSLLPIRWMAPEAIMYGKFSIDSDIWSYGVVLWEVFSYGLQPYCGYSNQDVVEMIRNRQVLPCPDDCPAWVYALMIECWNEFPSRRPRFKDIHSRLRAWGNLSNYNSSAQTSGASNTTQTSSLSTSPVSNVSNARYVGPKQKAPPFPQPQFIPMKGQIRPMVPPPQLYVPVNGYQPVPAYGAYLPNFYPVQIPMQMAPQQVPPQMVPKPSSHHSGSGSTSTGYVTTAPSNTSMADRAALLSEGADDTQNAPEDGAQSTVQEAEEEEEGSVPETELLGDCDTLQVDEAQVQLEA
Assay: flow cytometry, TC32 cells (EW/PNET)
Design: unit not given here
// values below are reported binding intensity
recorded-metric: binding intensity

* ROR2-23 full length human IgG1 antibody (antibody, V domains shown, The light chain of clone 023 is labelled kappa; also called clone #23; clone #023 IgG1) VH: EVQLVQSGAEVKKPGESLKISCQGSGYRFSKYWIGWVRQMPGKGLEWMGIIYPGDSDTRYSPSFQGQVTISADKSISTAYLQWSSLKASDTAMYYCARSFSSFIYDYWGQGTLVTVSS VL: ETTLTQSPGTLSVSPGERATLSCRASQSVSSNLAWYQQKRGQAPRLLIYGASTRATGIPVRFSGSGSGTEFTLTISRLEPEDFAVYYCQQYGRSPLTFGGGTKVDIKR | 37
* ROR2-27 full length human IgG1 antibody (antibody, V domains shown, also called clone #27; clone #027 IgG1) VH: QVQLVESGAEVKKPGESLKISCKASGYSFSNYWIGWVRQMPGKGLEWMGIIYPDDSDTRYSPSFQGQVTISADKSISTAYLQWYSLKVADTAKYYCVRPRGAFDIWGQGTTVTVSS VL: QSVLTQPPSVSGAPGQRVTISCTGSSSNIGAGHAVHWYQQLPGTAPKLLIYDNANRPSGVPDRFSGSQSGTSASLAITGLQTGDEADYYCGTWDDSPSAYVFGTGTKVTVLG | 20
* ROR2-241 full length human IgG1 antibody (antibody, V domains shown) VH: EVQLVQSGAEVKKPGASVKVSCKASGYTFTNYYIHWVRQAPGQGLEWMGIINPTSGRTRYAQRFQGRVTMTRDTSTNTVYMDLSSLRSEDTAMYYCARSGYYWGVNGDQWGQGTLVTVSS VL: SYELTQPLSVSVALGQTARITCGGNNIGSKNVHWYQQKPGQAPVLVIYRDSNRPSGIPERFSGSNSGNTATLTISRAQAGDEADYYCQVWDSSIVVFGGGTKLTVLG | 17
